Data origin: paper PMC4696031

experimentalProtocol: Phase 2 trial: plasma pharmacokinetics
Format: in vivo, patients
conditionLabel: human, plasma, iv, 300 mg
assayEndpoint: AUC(0-inf) (ng·h/mL)
The figure you give is taken to be in ng·h/mL; do not add the unit.

Record "CC[C@@H]1C(=O)N(C)c2cnc(Nc3ccc(C(=O)N[C@H]4CC[C@H](N5CCN(CC6CC6)CC5)CC4)cc3OC)nc2N1C(C)C" , field AUC(0-inf): 5470

---

experimentalProtocol: Phase 2 trial: plasma pharmacokinetics
Assay type: in vivo, patients
conditionLabel: human, plasma, iv, 300 mg
assayEndpoint: MRT (h)
Only the number, expressed in h, is required.

# molecule CC[C@@H]1C(=O)N(C)c2cnc(Nc3ccc(C(=O)N[C@H]4CC[C@H](N5CCN(CC6CC6)CC5)CC4)cc3OC)nc2N1C(C)C [Volasertib] ; its MRT = 136

---

experimentalProtocol: Phase 2 trial: plasma pharmacokinetics
Type: in vivo, patients
conditionLabel: human, plasma, iv, 300 mg, tmax, Range, first 2-hour intravenous infusion of 300 mg
assayEndpoint: Tmax

In plain terms, "CC[C@@H]1C(=O)N(C)c2cnc(Nc3ccc(C(=O)N[C@H]4CC[C@H](N5CCN(CC6CC6)CC5)CC4)cc3OC)nc2N1C(C)C" has a documented Tmax of 1.53 to 4.17 h

---

experimentalProtocol: Phase 2 trial: plasma pharmacokinetics
Type: in vivo, patients
conditionLabel: human, plasma, iv, 300 mg
assayEndpoint: half-life (h)
Reply with just the number (in h).

Briefly, half-life measured for CC[C@@H]1C(=O)N(C)c2cnc(Nc3ccc(C(=O)N[C@H]4CC[C@H](N5CCN(CC6CC6)CC5)CC4)cc3OC)nc2N1C(C)C [Volasertib] : 150

---

experimentalProtocol: Phase 2 trial: plasma pharmacokinetics
Type: in vivo, patients
conditionLabel: human, plasma, iv, 300 mg
assayEndpoint: clearance (mL/min)
Write the answer as a number in mL/min, unit excluded.

Measured clearance, "CC[C@@H]1C(=O)N(C)c2cnc(Nc3ccc(C(=O)N[C@H]4CC[C@H](N5CCN(CC6CC6)CC5)CC4)cc3OC)nc2N1C(C)C" : 914

---

experimentalProtocol: Phase 2 trial: plasma pharmacokinetics
Assay type: in vivo, patients
conditionLabel: human, plasma, iv, 300 mg, tmax, Median, first 2-hour intravenous infusion of 300 mg
assayEndpoint: Tmax

The compound "CC[C@@H]1C(=O)N(C)c2cnc(Nc3ccc(C(=O)N[C@H]4CC[C@H](N5CCN(CC6CC6)CC5)CC4)cc3OC)nc2N1C(C)C" showed Tmax equal to ~2 h

---

experimentalProtocol: Phase 2 trial: plasma pharmacokinetics
Assay type: in vivo, patients
conditionLabel: human, plasma, iv, 300 mg
assayEndpoint: Cmax
I'd appreciate it if you wrote the number followed by its unit.

Value of Cmax reported for the molecule "CC[C@@H]1C(=O)N(C)c2cnc(Nc3ccc(C(=O)N[C@H]4CC[C@H](N5CCN(CC6CC6)CC5)CC4)cc3OC)nc2N1C(C)C" is 253 ng/mL
